measurement target: T1, human ENA-78 (human, UniProt P42830 37-114, limits assumed)
T1 sequence (looked up): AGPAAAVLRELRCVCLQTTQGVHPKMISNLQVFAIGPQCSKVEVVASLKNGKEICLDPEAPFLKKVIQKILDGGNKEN
assay name: cell-based or functional assay
metric: FLIPR IC50 (µg/mL)
// note: answer is a bare numeric in µg/mL

| binder | metric | unit string | assay result |
| --- | --- | --- | --- |
| 5D2.2D10 (antibody, V domains shown) VH: QIQLVQSGPELKKPGETVKISCKASGYIFTAYGMSWVKQAPGKGLKWMGWINTYSGVPTYADHFKGRFDFSLETSASTAYLQINNLKNEDTATYFCARPTVVDPWYFDVWGTGTTVTVSS VL: DIQMTQSPASLSVSVGETVTITCRASENIYSNLAWYQQKQGKSPQLLVYAATNLGDGVPSRFSGSGSGTQYSLKINSLQSEDFGSYYCQHFWTTPWTFGGGTKLEIK | FLIPR IC50 | µg/mL | 4.7 |

Next up:
QUERY: Name the reported FLIPR IC50 value associated with the binder 2X352.3 (antibody, IgG1, V domains shown) VH: QIQLVQSGPELKKPGETVKISCKASGYTLTYYGIHWVTQTPGKGLNWMGWINTNTGEPTYVEEFKGRFAFSLETSASTAYLQITDLKNEDTATYFCAKATYDGYSDYWGQGTTLTVSS VL: DIQMTQSPASLSVSVGESVTITCRASENIYSNLAWYQQKQGKSPQLLVYDATNLAHGVPSRFSGSGSGTQFSLRINSLQSEDFGSYYCQHFWGTPLTFGAGTRLELK
RESULT: 4.99
